- Measured target: human CD46 expressed on 293 cells (human) (UniProt P15529)
- Experiment: FACS, 293 cells expressing human CD46; EC50 at pH 7.4 over EC50 at pH 6.0
Readout kind: Ratio (pH 7.4/6.0)

Illustrative cases are given below, each with its answer.
BA-133-04-02 (antibody, V domains shown) VH: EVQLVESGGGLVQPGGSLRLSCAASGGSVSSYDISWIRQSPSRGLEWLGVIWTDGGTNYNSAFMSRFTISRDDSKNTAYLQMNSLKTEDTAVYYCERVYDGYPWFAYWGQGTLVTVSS VL: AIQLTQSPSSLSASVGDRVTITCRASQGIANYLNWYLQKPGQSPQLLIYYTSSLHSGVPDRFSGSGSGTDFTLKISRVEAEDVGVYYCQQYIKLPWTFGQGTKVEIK | 3.4
Benchmark (BM) BA-133-00-01 (antibody, V domains shown) VH: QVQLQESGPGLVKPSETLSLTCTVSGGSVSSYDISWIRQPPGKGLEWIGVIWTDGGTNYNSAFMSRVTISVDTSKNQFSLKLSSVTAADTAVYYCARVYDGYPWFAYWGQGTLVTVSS VL: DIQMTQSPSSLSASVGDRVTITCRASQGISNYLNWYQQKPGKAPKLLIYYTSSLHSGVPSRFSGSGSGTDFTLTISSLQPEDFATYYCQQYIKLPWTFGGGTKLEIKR | 2.5

Here is the next item to consider.
Ask: Entry BA-133-04-03 (antibody, V domains shown) VH: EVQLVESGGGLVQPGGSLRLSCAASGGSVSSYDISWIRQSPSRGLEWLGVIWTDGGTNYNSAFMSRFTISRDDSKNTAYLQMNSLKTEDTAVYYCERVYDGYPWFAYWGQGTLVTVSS VL: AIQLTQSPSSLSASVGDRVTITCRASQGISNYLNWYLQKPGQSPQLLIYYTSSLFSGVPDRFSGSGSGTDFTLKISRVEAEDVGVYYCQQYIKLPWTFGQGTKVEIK : reported Ratio (pH 7.4/6.0) = ?
Result: 2.9
